System: Streptococcus pyogenes
assay-text: Antibacterial activity against Streptococcus pyogenes CN10 up to 200 ug/ml
Type: functional, organism-based
Calls of active or inactive are those of the source. The calls are words filed in the database; no cut-off is given here.
measured-attribute: Activity

> print(dat)
                                   molecule                     tgt  measured.attribute    result
1  O=C1N=C(NCCO)SC1Cc1c[nH]c2ccccc12 (racemic)  Streptococcus pyogenes            Activity  inactive
2  CNC1=NC(=O)[C@@H]([C@@H](C)c2c[nH]c3ccccc23)S1  Streptococcus pyogenes            Activity  inactive
3  O=C1N=C(NCc2ccccc2)SC1Cc1c[nH]c2ccccc12 (racemic)  Streptococcus pyogenes            Activity  inactive

###

For each of the compounds below, state its MCC.
assay-text: Cytotoxicity against human HeLa cells by neutral red assay
Type: cell-based
Give bare numbers, in µg/mL.

> print(dat)
                                   compound  result
1  C/N=C1/S[C@@H]([C@H](C)c2c[nH]c3ccccc23)C(=O)N1C (racemic)      12

Working through the 2 compounds below one at a time, give MCC for each.
1. CNC1=NC(=O)[C@H]([C@H](C)c2c[nH]c3ccccc23)S1 (racemic)
2. OC(c1ccccc1)c1nc2ccccc2[nH]1 (configuration not stated)

Ans.
1. 30
2. 100

###

assay-text: Cytotoxicity against BHK cells up to 100 ug/ml by carbol fuschin assay
Assay type: cell-based, Mesocricetus auratus
study-conditions: hamster
measured-attribute: Activity

> print(dat)
                                   compound     result
1  CN1C(=N)SC(Cc2c[nH]c3ccccc23)C1=O (racemic)  Non-toxic
2  CCN1C(=N)SC(Cc2c[nH]c3ccccc23)C1=O (racemic)  Non-toxic
3  O=C1N/C(=N\c2ccccc2)SC1Cc1c[nH]c2ccccc12 (racemic)  Non-toxic

###

assay-text: Cytotoxicity against BHK cells
Assay type: cell-based, Mesocricetus auratus
study-conditions: hamster
measured-attribute: MCC (µg/mL)
Answers are plain numbers, in µg/mL.

> print(dat)
                                   compound  result
1  C/N=C1/S[C@@H]([C@H](C)c2c[nH]c3ccccc23)C(=O)N1C (racemic)       4
2  C[C@H](c1c[nH]c2ccccc12)[C@@H]1SC(N)=NC1=O     100
3  C[C@H](c1c[nH]c2ccccc12)[C@@H]1SC(NCCO)=NC1=O (racemic)     100

Working through the 3 compounds below one at a time, give MCC for each.
1. CCNC1=NC(=O)[C@H]([C@H](C)c2c[nH]c3ccccc23)S1 (racemic)
2. CNC1=NC(=O)C(Cc2c[nH]c3ccccc23)S1 (racemic)
3. CNC1=NC(=O)[C@H]([C@H](C)c2c[nH]c3ccccc23)S1 (racemic)

Ans.
1. 10
2. 30
3. 10

###

For each of the molecules below, state its MIC.
Tested on: Bacillus subtilis
assay-text: Antibacterial activity against Bacillus subtilis
Assay type: functional

> print(dat)
                                   molecule       result
1  C[C@H](c1c[nH]c2ccccc12)[C@@H]1SC(N(C)C)=NC1=O (racemic)  > 200 µg/mL

Working through the 4 molecules below one at a time, give MIC for each.
1. CNC1=NC(=O)[C@H]([C@H](C)c2c[nH]c3ccccc23)S1 (racemic)
2. NC1=NC(=O)C(Cc2c[nH]c3ccccc23)S1 (racemic)
3. C[C@H](c1c[nH]c2ccccc12)[C@@H]1SC(N)=NC1=O
4. C[C@H](c1c[nH]c2ccccc12)[C@@H]1SC(NCCO)=NC1=O (racemic)

Ans.
["20 µg/mL", "> 200 µg/mL", "200 µg/mL", "> 200 µg/mL"]

Working through the 3 molecules below one at a time, give MIC for each.
1. CCNC1=NC(=O)[C@H]([C@H](C)c2c[nH]c3ccccc23)S1 (racemic)
2. CNC1=NC(=O)[C@@H]([C@H](C)c2c[nH]c3ccccc23)O1 (racemic)
3. CNC1=NC(=O)C(Cc2c[nH]c3ccccc23)S1 (racemic)

Ans.
1: 200 µg/mL; 2: > 200 µg/mL; 3: > 200 µg/mL
